# measurement.target: T1, Peptide 4: Biotin-AGGGGSGGGGSGGGGSAAA-Tyr-acid (N-terminal biotin; C-terminal acid)
# T1 construct: Control peptide without PC
# T1 peptide: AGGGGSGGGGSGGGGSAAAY
# assay.name: scFv ELISA
# Protocol: For ELISA analysis of scFv binding, 96-well polystyrene plates were coated with Peptide 1, 4, 5, 8 or 100 μL BSA (10 μg/mL) in PBS at 4° C. overnight. […] All plates were washed three times with PBS-Tween before 40 μL aliquots of PPE were added to assay plates along with 50 μL 10% BSA, and plates were incubated for 1 hour at room temperature. […] The amount of scFv bound to each well was quantitated from absorbance measurement at 450 nm (OD450).
Each item that follows carries a reported OD450.
Express it in OD450; write the number only.

Solved entries:
| binder | parameter | quantitative.readout |
| --- | --- | --- |
| PcOxP_DB02_F04 (scFv, V domains shown, scFv in periplasmic extract) VH: EVQLLESGGGLVQPGGSLRLSCAASGFTGSDFYMEWVRQAPGKGLEWVAASRNSGNSYTTAYADSVKGRFTISRDNSKNTLYLQMNSLRAEDTAVYYCARDYFGSSYWYFDVWGQGTLVTVSS VL: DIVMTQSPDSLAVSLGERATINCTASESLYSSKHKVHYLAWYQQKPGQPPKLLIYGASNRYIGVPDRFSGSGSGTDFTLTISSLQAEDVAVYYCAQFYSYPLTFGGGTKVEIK | OD450 | 0.04 |
| PcOxP_DB03_C01 (scFv, V domains shown, scFv in periplasmic extract) VH: EVQLLESGGGLVQPGGSLRLSCAASGFTFSDFYMEWVRQAPGKGLEWVAASRNKANDYTTEVADSVKGRFTISRDNSKNTLYLQMNSLRAEDTAVYYCARDYYGSSNWYFDVWGQGTLVTVSS VL: DIVMTQSPDSLAVSLGERATINCTASESLYSSKIKVHYLAWYQQKPGQPPKLLIYGAHNRYIGVPDRFSGSGSGTDFTLTISSLQAEDVAVYYCAQFYSYPLTFGGGTKVEIK | OD450 | 0.05 |

Consider the record given below.
### Prompt Please supply the value of reported OD450 for the item PcOxP_DB04_E05 (scFv, V domains shown, scFv in periplasmic extract) VH: EVQLLESGGGLVQPGGSLRLSCAASGNTFSDFYMEWVRQAPGKGLEWVAASRNKANYYTTEYADSVKGRFTISRDNSKNTLYLQMNSLRAEDTAVYYCARDYYGSSYWYFDVWGQGTLVTVSS VL: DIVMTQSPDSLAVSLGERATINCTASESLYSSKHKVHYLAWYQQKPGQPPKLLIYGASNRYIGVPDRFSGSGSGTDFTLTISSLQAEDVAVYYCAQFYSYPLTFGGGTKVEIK
### Response 0.06
